Target: β-Glucuronidase from E. coli (Escherichia coli, UniProt P05804)
Sequence (P05804 whole entry): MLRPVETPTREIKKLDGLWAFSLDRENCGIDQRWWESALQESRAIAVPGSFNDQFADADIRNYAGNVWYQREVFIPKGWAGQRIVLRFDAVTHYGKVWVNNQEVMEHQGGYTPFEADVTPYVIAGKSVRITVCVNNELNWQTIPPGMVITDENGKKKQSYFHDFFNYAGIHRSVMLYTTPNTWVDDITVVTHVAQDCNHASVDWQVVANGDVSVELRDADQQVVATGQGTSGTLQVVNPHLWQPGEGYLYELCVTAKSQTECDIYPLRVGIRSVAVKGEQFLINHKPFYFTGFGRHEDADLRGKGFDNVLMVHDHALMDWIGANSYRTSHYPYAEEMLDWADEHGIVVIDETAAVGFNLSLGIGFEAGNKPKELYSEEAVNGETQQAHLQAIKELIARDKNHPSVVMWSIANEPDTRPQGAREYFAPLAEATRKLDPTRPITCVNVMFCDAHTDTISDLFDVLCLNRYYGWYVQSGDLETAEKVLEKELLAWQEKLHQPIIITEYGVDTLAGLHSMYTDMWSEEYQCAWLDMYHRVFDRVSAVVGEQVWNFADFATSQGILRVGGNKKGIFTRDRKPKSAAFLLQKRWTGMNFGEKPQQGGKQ
Experiment: β-Glucuronidase inhibitory activity assay with PNPG substrate
property-name: IC50

Enquiry: IC50 lookup needed for CCC(=O)c1c(O)cc(O)cc1O [Compound 2, 1-(2,4,6-trihydroxy-phenyl)-propan-1-one] , thanks.
Return: > 100 µM

Enquiry: Moving on to CCCC(=O)c1c(O)cc(O)c(Cc2c(O)cc(O)c(C(=O)CC)c2O)c1O [Compound 13, dryopidin PB]
Return: 18.1 µM

Enquiry: Moving on to CC(=O)c1c(O)cc(O)c(C(C)=O)c1O [Compound 4, 5-acetyl-2,4,6-trihydroxyacetophenone]
Return: > 100 µM

Enquiry: Check CCC(=O)c1c(O)cc(O)c(C(=O)CC)c1O [Compound 5, 1,3-(2,4,6-trihydroxyphenyl)dipropanone] too.
Return: > 100 µM

Enquiry: Next entry: CCCC(=O)c1c(O)cc(O)c(CC2=C(O)C(C)(C)C(O)=C(C(=O)CC)C2=O)c1O [Compound 18, norflavaspidic acid PB]
Return: > 100 µM

Enquiry: Let us now turn to CCCC(=O)c1c(O)cc(O)c(CC2=C(O)C(C)(C)C(O)=C(C(C)=O)C2=O)c1O [Compound 17, norflavaspidic acid AB]
Return: 67 µM

Enquiry: Also, CCCC(=O)c1c(O)c(C)c(O)c(CC2=C(O)C(C)(C)C(O)=C(C(=O)CC)C2=O)c1O [Compound 23, flavaspidic acid PB] please.
Return: 76.5 µM

Enquiry: // query: CC(=O)C1=C(O)C(C)(C)C(O)=C(Cc2c(O)c(C)c(O)c(C(C)=O)c2O)C1=O [Compound 20, flavaspidic acid AA]
Return: 75.7 µM

Enquiry: Next entry: CCCC(=O)c1c(O)cc(O)c(Cc2c(O)c(C)c(O)c(C(=O)CCC)c2O)c1O [Compound 15, araspidin BB]
Return: 17 µM

Enquiry: Then CC(=O)c1c(O)cc(O)cc1O [Compound 1, 2,4,6-trihydroxy-acetophenone] ?
Return: > 100 µM

Enquiry: And the next one, CCCC(=O)c1c(O)c(C)c(O)c(Cc2c(O)c(CC3=C(O)C(C)(C)C(O)=C(C(C)=O)C3=O)c(O)c(C(=O)CCC)c2O)c1O [Compound 27, trisflavaspidic acid ABB] ?
Return: 7.1 µM

Enquiry: And for CCCC(=O)c1c(O)cc(O)c(Cc2c(O)cc(O)c(C(=O)CCC)c2O)c1O [Compound 14, methylene-bis-phlorobutyrophenone] ?
Return: 14.4 µM

* * *

Biological target: β-Glucuronidase from E. coli (Escherichia coli, UniProt P05804)
Test: β-Glucuronidase inhibitory activity assay with PNPG substrate
Conditions: read-out: Inhibition of Compounds on β-glucuronidase, Inhibition at 100 μM (%)
The molecules listed here are annotated with their inhibition at 100 µM.
Numbers only here, please. The scale is %.

Some entries whose results are on file:
Enquiry: Entry CCCC(=O)c1c(O)cc(O)c(Cc2c(O)cc(O)c(C(=O)CCC)c2O)c1O [Compound 14, methylene-bis-phlorobutyrophenone] has what inhibition at 100 µM?
Return: 97.1

Enquiry: Follow-up entry: CCCC(=O)c1c(O)c(CC2=C(O)C(C)(C)C(O)=C(C(C)=O)C2=O)c(O)c(C2CCCN2C(=N)N)c1O (centres unmarked) [Compound 25, dryopcrassirine AB]
Return: 30.7

Enquiry: Again, but for CC(=O)c1c(O)cc(O)c(C(C)=O)c1O [Compound 4, 5-acetyl-2,4,6-trihydroxyacetophenone]
Return: 22.1

Enquiry: Also CC(=O)c1c(O)cc(O)cc1O [Compound 1, 2,4,6-trihydroxy-acetophenone] , if possible.
Return: 11.6

Enquiry: What would you report for CCC(=O)c1c(O)cc(O)c(C(=O)CC)c1O [Compound 5, 1,3-(2,4,6-trihydroxyphenyl)dipropanone] ?
Return: 27.1

---
Enquiry: Param item = CCCC(=O)c1c(O)c(CC2=C(O)C(C)(C)C(O)=C(C(C)=O)C2=O)c(O)c(CC2=C(O)C(C)(C)C(O)=C(C(C)=O)C2=O)c1O [Compound 29, filixic acid ABA] ; retrieve measured inhibition at 100 µM.
Return: 53.4

Enquiry: CCCC(=O)c1c(O)cc(O)c(Cc2c(O)c(C)c(O)c(C(=O)CCC)c2O)c1O [Compound 15, araspidin BB] ?
Return: 89.1

Enquiry: Same thing, different molecule: CCC(=O)c1c(O)cc(O)c(CC2=C(O)C(C)(C)C(O)=C(C(C)=O)C2=O)c1O [Compound 16, norflavaspidic acid AP]
Return: 68.3

Enquiry: Cool, now CCCC(=O)c1c(O)cc(O)cc1O [Compound 3, phlorobutyrophenone]
Return: 22

Enquiry: Another: CCCC(=O)c1c(O)cc(O)c(Cc2c(O)c(CC3=C(O)C(C)(C)C(O)=C(C(C)=O)C3=O)c(O)c(C(=O)CCC)c2O)c1O [Compound 26, nortrisflavaspidic acid ABB]
Return: 98.1

Enquiry: Now give it for CCCC(=O)C1=C(O)C(C)(C)C(O)=C(Cc2c(O)c(Cc3c(O)c(C)c(O)c(C(=O)CCC)c3O)c(O)c(C(=O)CCC)c2O)C1=O [Compound 28, trisflavaspidic acid BBB] too.
Return: 106

* * *

Listed next: entries and their corresponding inhibition at 100 µM.
Biological target: β-Glucuronidase from E. coli (Escherichia coli)
Experiment: β-Glucuronidase inhibitory activity assay with PNPG substrate
Conditions: read-out: Inhibition of Compounds on β-glucuronidase, Inhibition at 100 μM (%)
Value expressed in %; do not type the unit.

Enquiry: inhibition at 100 µM lookup needed for `CCCC(=O)c1c(O)c(C)c(O)c(CC2=C(O)C(C)(C)C(O)=C(C(=O)CC)C2=O)c1O` , thanks.
Return: 73.5

Enquiry: Then `CC(=O)C1=C(O)C(C)(C)C(O)=C(Cc2c(O)c(C)c(O)c(C(C)=O)c2O)C1=O` ?
Return: 76.1

Please examine the following record next.
Enquiry: Entry `CCCC(=O)c1c(O)cc(O)c(-c2c(O)cc(O)c(C(=O)CCC)c2O)c1O` : reported inhibition at 100 µM = ?
Return: 34.1

* * *

Each entry below carries its recorded pIC50.
Molecular target: β-Glucuronidase from E. coli (Escherichia coli, UniProt P05804)
Assay: β-Glucuronidase inhibitory activity assay with PNPG substrate
pIC50: −log10 of the molar value.

Enquiry: Tell me the measured pIC50 of CCCC(=O)c1c(O)cc(O)c(C(=O)CCC)c1O [Compound 6, 1,3-(2,4,6-trihydroxyphenyl)dibutanone] , please.
Return: < 4.00

Enquiry: Quick one: CCCC(=O)c1c(O)c(CC2=C(O)C(C)(C)C(O)=C(C(C)=O)C2=O)c(O)c(C2CCCN2C(=N)N)c1O (stereo not drawn)
Return: < 4.00

Enquiry: Note, next up: `CCCC(=O)c1c(O)cc(O)c(-c2c(O)cc(O)c(C(=O)CCC)c2O)c1O`
Return: < 4.00

Enquiry: Check `CCCC(=O)c1c(O)c(C)c(O)c(CC2=C(O)C(C)(C)C(O)=C(C(C)=O)C2=O)c1O` too.
Return: < 4.00

Enquiry: Also check `CCC(=O)c1c(O)c(C)c(O)c(CC2=C(O)C(C)(C)C(O)=C(C(C)=O)C2=O)c1O`
Return: < 4.00

Continue with the next molecule.
Enquiry: # input molecule: `CCCC(=O)c1c(O)c(CC2=C(O)C(C)(C)C(O)=C(C(C)=O)C2=O)c(O)c(CC2=C(O)C(C)(C)C(O)=C(C(C)=O)C2=O)c1O` ; wanted: its pIC50
Return: 4.04

* * *

Target: β-Glucuronidase from E. coli (Escherichia coli, UniProt P05804)
Assay: β-Glucuronidase inhibitory activity assay with PNPG substrate
property-name: IC50 (µM)
Use µM as the unit, but write only the number.

Enquiry: Given the entry O=C(O)[C@@H](O)[C@H]1OC(=O)[C@H](O)[C@H]1O [DSA, D-saccharic acid 1,4-lactone, reference compound] , report its measured IC50.
Return: 23.4

Now let's try a different one.
Enquiry: # query: IC50 of entry `CCCC(=O)c1c(O)c(C(=O)CCC)c(O)c(C(=O)CCC)c1O`
Return: 43

* * *

inhibition at 100 µM: recorded values
Target: β-Glucuronidase from E. coli (Escherichia coli, UniProt P05804)
Assay: β-Glucuronidase inhibitory activity assay with PNPG substrate
Details: read-out: Inhibition of Compounds on β-glucuronidase, Inhibition at 100 μM (%)
Please state the figure in %; there is no need to write the unit.

// known answers, use as guide
Enquiry: So what's the measured inhibition at 100 µM for this one? `CCCC(=O)c1c(O)c(CC2=C(O)C(C)(C)C(O)=C(C(C)=O)C2=O)c(O)c(Cc2c(O)c(CC3=C(O)C(C)(C)C(O)=C(C(C)=O)C3=O)c(O)c(C(=O)CCC)c2O)c1O`
Return: 51.8

Enquiry: Please answer likewise for `CCC(=O)c1c(O)c(C(=O)CC)c(O)c(C(=O)CC)c1O`
Return: 41.4

Enquiry: What about this molecule? `CCCC(=O)c1c(O)c(C)c(O)c(Cc2c(O)c(CC3=C(O)C(C)(C)C(O)=C(C(C)=O)C3=O)c(O)c(C(=O)CCC)c2O)c1O`
Return: 101

Enquiry: And then CCC(=O)c1c(O)cc(O)cc1O [Compound 2, 1-(2,4,6-trihydroxy-phenyl)-propan-1-one] , what is it?
Return: 24.4

Enquiry: Next up: O=C(O)[C@@H](O)[C@H]1OC(=O)[C@H](O)[C@H]1O [DSA, D-saccharic acid 1,4-lactone, reference compound]
Return: 79

Enquiry: Similarly, `CCCC(=O)c1c(O)c(C)c(O)c(CC2=C(O)C(C)(C)C(O)=C(C(C)=O)C2=O)c1O` ?
Return: 48.7

Others:
Enquiry: Give the measured inhibition at 100 µM of `CCC(=O)c1c(O)c(C)c(O)c(CC2=C(O)C(C)(C)C(O)=C(C(C)=O)C2=O)c1O` .
Return: 47.9

Enquiry: Another molecule: `CCCC(=O)c1c(O)cc(O)c(CC2=C(O)C(C)(C)C(O)=C(C(=O)CC)C2=O)c1O`
Return: 42.2

Enquiry: Try `CCCC(=O)c1c(O)cc(O)c(Cc2c(O)cc(O)c(C(=O)CC)c2O)c1O` next.
Return: 93.7

Enquiry: Also, CCCC(=O)c1c(O)cc(O)c(C(=O)CCC)c1O [Compound 6, 1,3-(2,4,6-trihydroxyphenyl)dibutanone] please.
Return: 33.7

Enquiry: `CCCC(=O)C1=C(O)C(C)(C)C(O)=C(Cc2c(O)cc(O)c(C(=O)CCC)c2O)C1=O` , same question.
Return: 41

Enquiry: Also check `CCCC(=O)c1c(O)c(C(=O)CCC)c(O)c(C(=O)CCC)c1O`
Return: 87.3

Enquiry: Another molecule to check: `CCCC(=O)c1c(O)cc(O)c(CC2=C(O)C(C)(C)C(O)=C(C(C)=O)C2=O)c1O`
Return: 65.1
